molecular target: Serine/threonine-protein kinase PAK 3 (Homo sapiens); details: at 0.1 µM;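 further: mean percent inhibition of PAK3, measured in a screen of the GSK published kinase inhibitor set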
Observed property: inhibition (%)
Please reply with the bare figure in % and do not write the unit itself.

> print(dat)
                                        mol  units.text  observed.value
1  COc1cccc(-n2nc(C)c3c(N/N=C(\C)c4ccncc4)ncnc32)c1           %            0.46

Req: Report inhibition for O=S(=O)(CCOCc1ccc(-c2ccc3ncnc(Nc4ccc(OCc5cccc(F)c5)c(Cl)c4)c3c2)o1)c1ccccc1 please.
Resp: 0.57

Req: Field request: inhibition | item: O=C1Nc2ccc(-c3cccnc3)cc2C1=Cc1cc(Br)c(O)c(Br)c1
Resp: 4.09

Req: Using the record for Cc1nc(-c2ccccc2)n2nc(NCCCN3CCOCC3)ncc12 , report its inhibition.
Resp: 1.98

Req: For the molecule shown here, CN(C)c1cc2c(Nc3ccc4c(cnn4Cc4ccccc4)c3)ncnc2cn1 , give the reported inhibition.
Resp: 3.07

Req: Can you look up the measured inhibition of Nc1nccc(C#Cc2cncnc2Nc2ccc(OCc3cccc(F)c3)c(Cl)c2)n1 for me?
Resp: 0.29

Req: Consider the molecule CN(C)C(=O)O[C@H]1CN[C@H](C#Cc2cc3ncnc(Nc4ccc(OCc5cccc(F)c5)c(Cl)c4)c3s2)C1 and give its measured inhibition.
Resp: 2.53

Req: Field request: inhibition | item: COc1cc2ncn(-c3cc(OCc4ccccc4S(C)(=O)=O)c(C#N)s3)c2cc1OC
Resp: 4.63

Req: Request the reported inhibition associated with C[C@@H](Oc1cc(-n2cnc3ccc(OCC4CCN(C)CC4)cc32)sc1C(N)=O)c1ccccc1C(F)(F)F
Resp: -1.81

====

molecular target: Serine/threonine-protein kinase 4 (Homo sapiens); settings: at 1 µM;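 further: mean inhibition of MST1, part of the GSK PKIS dataset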
Observed property: inhibition (%)
Expressed in %, but write only the number.

// solved cases for inhibition follow
> print(dat)
                                   compound                           measured.target  observed.value
1  CCCN1CCCC(c2ccc(Nc3nc(Nc4cc(F)ccc4C(N)=O)c4cc[nH]c4n3)c(OC)c2)C1 (stereo unspecified)  Serine/threonine-protein kinase 4 (Homo sapiens)              41
2  Cc1ccc(Nc2ccnc(Nc3cccc(C(N)=O)c3)n2)cc1O  Serine/threonine-protein kinase 4 (Homo sapiens)            12.2
3  NC(=O)c1sc(-n2cnc3ccccc32)cc1OCc1ccccc1Br  Serine/threonine-protein kinase 4 (Homo sapiens)            7.07
4  NS(=O)(=O)c1ccc(NC=C2C(=O)Nc3ccc4ncsc4c32)cc1  Serine/threonine-protein kinase 4 (Homo sapiens)            80.4
5             CCOc1nccc2c1nc(-c1nonc1N)n2CC  Serine/threonine-protein kinase 4 (Homo sapiens)            22.7
6  COC(=O)Nc1nc2cc(Oc3ccc(NC(=O)Nc4cccc(Br)c4)cc3)ccc2[nH]1  Serine/threonine-protein kinase 4 (Homo sapiens)            2.71

Req: Lab note: need inhibition for [O-][S+]1CCN(Cc2ccc(-c3ccc4ncnc(Nc5ccc(OCc6ccccc6)c(Cl)c5)c4c3)o2)CC1 on Serine/threonine-protein kinase 4 (Homo sapiens), anyone have it?
Resp: 1.83

Req: Lookup: inhibition / Serine/threonine-protein kinase 4 (Homo sapiens) / COc1cccc(-n2ncc3c(N/N=C/c4ccc(S(C)(=O)=O)cc4)ncnc32)c1
Resp: 4.3

====

tested on: Proto-oncogene tyrosine-protein kinase receptor Ret (Homo sapiens), P07949 [V804L]; conditions: at 1 µM
Sequence (P07949 whole entry V804L): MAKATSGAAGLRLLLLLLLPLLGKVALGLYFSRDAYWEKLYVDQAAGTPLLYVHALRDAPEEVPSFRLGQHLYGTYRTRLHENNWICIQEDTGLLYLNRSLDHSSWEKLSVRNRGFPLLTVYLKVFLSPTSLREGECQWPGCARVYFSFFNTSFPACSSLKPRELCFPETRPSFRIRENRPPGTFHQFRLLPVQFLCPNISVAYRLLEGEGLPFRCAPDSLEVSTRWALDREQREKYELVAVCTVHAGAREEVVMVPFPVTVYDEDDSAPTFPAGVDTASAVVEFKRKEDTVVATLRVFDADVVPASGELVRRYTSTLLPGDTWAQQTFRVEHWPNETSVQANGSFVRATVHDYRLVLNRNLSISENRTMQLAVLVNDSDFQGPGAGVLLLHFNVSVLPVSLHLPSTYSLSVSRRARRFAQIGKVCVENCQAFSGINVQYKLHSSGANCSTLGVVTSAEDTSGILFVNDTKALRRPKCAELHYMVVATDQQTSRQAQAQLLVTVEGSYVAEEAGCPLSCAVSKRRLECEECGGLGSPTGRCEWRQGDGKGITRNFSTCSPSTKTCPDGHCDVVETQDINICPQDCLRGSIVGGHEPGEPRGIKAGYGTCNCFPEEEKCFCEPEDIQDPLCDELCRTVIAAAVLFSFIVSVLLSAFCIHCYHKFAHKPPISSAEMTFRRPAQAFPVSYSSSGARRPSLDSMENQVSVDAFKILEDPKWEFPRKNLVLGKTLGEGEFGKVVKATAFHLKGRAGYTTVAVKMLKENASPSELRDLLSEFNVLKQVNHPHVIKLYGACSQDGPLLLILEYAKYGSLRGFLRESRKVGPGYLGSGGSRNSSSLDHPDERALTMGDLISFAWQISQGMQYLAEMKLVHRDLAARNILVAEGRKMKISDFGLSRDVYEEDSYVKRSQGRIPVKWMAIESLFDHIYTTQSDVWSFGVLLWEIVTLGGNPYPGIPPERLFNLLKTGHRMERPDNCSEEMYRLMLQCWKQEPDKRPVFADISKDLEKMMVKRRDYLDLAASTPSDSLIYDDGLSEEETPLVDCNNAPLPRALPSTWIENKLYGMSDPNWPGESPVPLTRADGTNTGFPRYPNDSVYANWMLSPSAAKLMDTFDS
inhibition reference
Field note: include the unit after the figure.

> print(dat)
                                        mol  observed.property  observed.value
1  Cc1ccc2c(-c3ccnc(Nc4ccc5c(c4)OCCO5)n3)c(-c3ccc(C(F)(F)F)cc3)nn2n1         inhibition           1.64%

Req: Endpoint output: inhibition of NS(=O)(=O)c1cccc(-c2cc3ccncc3cc2OCc2ccccc2)c1 . Value?
Resp: 14.3%

Req: Look up inhibition: CC(C)c1ccc(Nc2nccc(-c3cnn4ncccc34)n2)cc1
Resp: 10.1%

Req: Tell me the measured inhibition of CCn1c(-c2nonc2N)nc2ccc(F)cc21 , please.
Resp: 15.8%

Req: For the compound O=S(=O)(CCOCc1ccc(-c2ccc3ncnc(Nc4ccc(OCc5cccc(F)c5)c(Cl)c4)c3c2)o1)c1ccccc1 , what inhibition is on record?
Resp: 10.1%

Req: Record request: inhibition value, item COc1cc(/C=N/Nc2ncnc3c2cnn3C(C)C)ccc1O
Resp: 53.9%

====

Biological target: Tyrosine-protein kinase ITK/TSK (Homo sapiens) (UniProt Q08881);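 further: mean percent inhibition of ITK from the GSK PKIS screen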
Sequence (whole entry): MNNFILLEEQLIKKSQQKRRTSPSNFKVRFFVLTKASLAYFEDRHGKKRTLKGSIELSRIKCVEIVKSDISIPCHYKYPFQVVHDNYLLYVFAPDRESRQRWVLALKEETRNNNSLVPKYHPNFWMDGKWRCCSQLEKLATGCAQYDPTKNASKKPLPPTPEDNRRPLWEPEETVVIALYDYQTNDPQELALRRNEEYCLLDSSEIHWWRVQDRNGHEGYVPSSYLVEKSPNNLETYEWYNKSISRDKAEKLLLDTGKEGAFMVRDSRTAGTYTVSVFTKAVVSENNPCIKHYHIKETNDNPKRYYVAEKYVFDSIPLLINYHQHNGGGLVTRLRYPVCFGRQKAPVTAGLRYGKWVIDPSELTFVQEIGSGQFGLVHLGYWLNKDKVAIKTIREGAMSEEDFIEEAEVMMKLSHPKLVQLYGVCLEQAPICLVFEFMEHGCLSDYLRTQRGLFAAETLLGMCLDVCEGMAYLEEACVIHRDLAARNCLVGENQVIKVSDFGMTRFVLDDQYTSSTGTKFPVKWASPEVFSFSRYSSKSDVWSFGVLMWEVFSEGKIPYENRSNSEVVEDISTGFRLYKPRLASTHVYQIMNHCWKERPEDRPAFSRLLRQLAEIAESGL
Conditions: at 0.1 µM
Observed property: inhibition (%)
Give the number; % is assumed, so skip it.

Req: Report inhibition for Cc1ccc(O)cc1Nc1ccnc2ccc(S(C)(=O)=O)cc12 please.
Resp: 1.1

Req: Returns the measured inhibition for the input compound. Input: COC(=O)c1ccc2c(c1)C(=Cc1cc(Br)c(O)c(Br)c1)C(=O)N2
Resp: 2.44

Req: Form field: reported inhibition of CCOc1nccc2c1nc(-c1nonc1N)n2CC
Resp: 1.74

Req: Dear colleague, I am looking for the recorded inhibition of the following compound: CS(=O)(=O)CCNCc1nc(-c2ccc3ncnc(Nc4ccc(OCc5cccc(C(F)(F)F)c5)cc4)c3c2)cs1
Resp: 1.21

Req: Form field: reported inhibition of CC(C)c1ccc(Nc2nccc(-c3cnn4ncccc34)n2)cc1
Resp: 0.75

Req: Suppose we examine the compound O=S(=O)(CCOCc1ccc(-c2ccc3ncnc(Nc4ccc(OCc5cccc(F)c5)c(Cl)c4)c3c2)o1)c1ccccc1 ; what inhibition value has been reported?
Resp: -0.7

====

target: Death-associated protein kinase 1 (Homo sapiens); conditions: at 1 µM
Observed property: inhibition (%)
State the answer as a number, implicitly in %.

> print(dat)
                                   compound  observed.property  units.text  observed.value
1  OCc1ccc(-c2nc(-c3ccccn3)c(-c3ccc4c(c3)OCO4)[nH]2)cc1         inhibition           %            6.09
2  CN(C)C(=O)O[C@@H]1CN[C@@H](C#Cc2cc3ncnc(Nc4ccc(OCc5cccc(F)c5)c(Cl)c4)c3s2)C1         inhibition           %            1.85
3  NC(=O)c1sc(-n2cnc3ccccc32)cc1OCc1ccccc1Br         inhibition           %            10.6
4   Cc1ccc(O)cc1Nc1ccnc2ccc(S(C)(=O)=O)cc12         inhibition           %            13.2
5  CCCN1CCCC(c2ccc(Nc3nc(Nc4cc(F)ccc4C(N)=O)c4cc[nH]c4n3)c(OC)c2)C1 (stereo unspecified)         inhibition           %            47.1
6  O=C(Nc1ccc(Oc2ccc3[nH]c(NC(=O)c4ccco4)nc3c2)cc1)Nc1cc(C(F)(F)F)ccc1F         inhibition           %           -1.29
7  NS(=O)(=O)c1cccc(-c2cc3ccncc3cc2OCc2ccccc2)c1         inhibition           %            7.29
8  Nc1nccc(C#Cc2cncnc2Nc2ccc(OCc3cccc(F)c3)c(Cl)c2)n1         inhibition           %             5.3

Req: Test system Death-associated protein kinase 1 (Homo sapiens); read-out inhibition; what value for Cc1cc(O)cc(C)c1/C=C/c1cncc(C(=O)N(C)C)c1 ?
Resp: 5.28

Req: Request body: readout inhibition, system Death-associated protein kinase 1 (Homo sapiens), query CCS(=O)(=O)c1ccc(OC)c(Nc2nccc(N(C)c3ccc4c(C)n[nH]c4c3)n2)c1 . Return the value.
Resp: 4.98

Req: Given the entry COc1cccc(-n2nc(C)c3c(N/N=C(\C)c4ccncc4)ncnc32)c1 , what inhibition was observed with Death-associated protein kinase 1 (Homo sapiens)?
Resp: -0.72

Req: Please state recorded inhibition (tested on Death-associated protein kinase 1 (Homo sapiens)) of c1ccc(Cc2nc3ccc(Nc4ncnc5ccccc45)cc3[nH]2)cc1
Resp: 5.17

Req: Look up inhibition with Death-associated protein kinase 1 (Homo sapiens) for this compound: CC(C)c1ccc2c(c1)NC(=O)/C2=N/Nc1ccc(S(N)(=O)=O)cc1
Resp: -1.66

Req: Requested read-out inhibition, target or system Death-associated protein kinase 1 (Homo sapiens), entry Cc1ccc(C(=O)NC2CC2)cc1-c1ccc2[nH]ncc2c1
Resp: -2.38

Req: Hello, I am looking for reported inhibition with Death-associated protein kinase 1 (Homo sapiens) for Nc1nccc(-c2c(-c3ccc(F)cc3)ncn2CCCN2CCOCC2)n1 . Could you help?
Resp: 5.9

Req: # value lookup — system Death-associated protein kinase 1 (Homo sapiens), readout inhibition, item Cc1ccc2c(c1)/C(=N/Nc1ccc(S(N)(=O)=O)cc1)C(=O)N2
Resp: 1.29

Req: Request - read-out inhibition | tested on Death-associated protein kinase 1 (Homo sapiens) | compound ON=C1CCc2cc(-c3nc(C4CCNCC4)[nH]c3-c3ccncc3)ccc21
Resp: 1.92

Req: Query inhibition on Death-associated protein kinase 1 (Homo sapiens) for NC(=O)c1cccc(Nc2nccc(Nc3cccc(F)c3)n2)c1
Resp: -2.63

Req: # returns recorded inhibition (system: Death-associated protein kinase 1 (Homo sapiens)) for NS(=O)(=O)c1ccc(N/N=C2\C(=O)Nc3ccc(Cl)cc32)cc1
Resp: -3.71

Req: Lab request: please report inhibition under test system Death-associated protein kinase 1 (Homo sapiens) for CS(=O)(=O)CCNCc1nc(-c2ccc3ncnc(Nc4ccc(OCc5cccc(C(F)(F)F)c5)cc4)c3c2)cs1
Resp: 2.59

Req: Lab note: need inhibition with Death-associated protein kinase 1 (Homo sapiens) for entry CN(C)CCCn1c(-c2nonc2N)nc2cnccc21 , please look it up.
Resp: 5.9

Req: Param readout= inhibition; system= Death-associated protein kinase 1 (Homo sapiens); entry= N#Cc1c(NC(=O)c2ccccc2F)sc2c1CCCC2 ; returns value.
Resp: -2.35

Req: Param readout = inhibition; param system = Death-associated protein kinase 1 (Homo sapiens); param query = Nc1ccc(C#Cc2cncnc2Nc2ccc(OCc3cccc(F)c3)c(Cl)c2)cc1 ; response: value
Resp: 1.54

Req: Identify the measured inhibition of FC(F)(F)c1ccc(-c2nn3ncccc3c2-c2ccnc(Nc3ccc4c(c3)OCCO4)n2)cc1 for Death-associated protein kinase 1 (Homo sapiens).
Resp: 1.79

Req: Recorded inhibition for O=S(=O)(CCOCc1ccc(-c2ccc3ncnc(Nc4ccc(OCc5cccc(F)c5)c(Cl)c4)c3c2)o1)c1ccccc1 with Death-associated protein kinase 1 (Homo sapiens), please?
Resp: 0.71

Req: Write down the reported inhibition of Cc1ccc(Nc2ccnc(Nc3cccc(C(N)=O)c3)n2)cc1O , test system: Death-associated protein kinase 1 (Homo sapiens).
Resp: 0.43

Req: Request: inhibition, test system Death-associated protein kinase 1 (Homo sapiens), entry O=C1Nc2ccc(-c3cccnc3)cc2C1=Cc1cc(Br)c(O)c(Br)c1
Resp: -6.21

Req: Reported inhibition for Death-associated protein kinase 1 (Homo sapiens), given CCn1c(-c2nonc2N)nc2c(C#CC(C)(C)O)nc(OCCNC)cc21 ?
Resp: -0.74

Req: Find the measured inhibition: item COC(=O)c1cncc(/C=C/c2c(C)cc(O)cc2C)c1 , target or system Death-associated protein kinase 1 (Homo sapiens).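 Further: each value is a mean inhibition figure.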
Resp: 5.55

Req: Query for Death-associated protein kinase 1 (Homo sapiens): what inhibition does the record show for CC(C)c1ccc(Nc2nccc(-c3cnn4ncccc34)n2)cc1 ?
Resp: -2.33

Req: Fill in the recorded inhibition for this compound, with Death-associated protein kinase 1 (Homo sapiens) as test system: Cc1ccc(NC(=O)CC2CC2)cc1-c1ccc(C(=O)NCC2CC2)cc1
Resp: 12.4
